assayed.target: MycN protein (Homo sapiens, UniProt P04198)
Construct: either 2×10^6 of L-363 (human leukemia cell line) or SKNBE2 (neuroblastoma cell line) cells; endogenous in cells; host or cells: SKNBE2 / SK-N-BE(2) neuroblastoma cells
protocol.description: Degradation of MycN protein, Western blot, SKNBE2 cells (Example 160)
Assay type: cell-based
reported.conditions: SKNBE2, 6 h
quantity: inhibition at 2 µM

Example entries and their recorded answers appear below.
chemical.string	inhibition at 2 µM
CN(c1nccc(Nc2cc(C3CC3)[nH]n2)n1)[C@H]1CC[C@H](NS(=O)(=O)c2cccc(C#N)c2)CC1	50 to 79%
CN(c1nccc(Nc2cc(C3CC3)[nH]n2)n1)[C@H]1CC[C@H](NC(=O)Cc2ccnc(C#N)c2)CC1	50 to 79%
CN(c1nccc(Nc2cc(C3CC3)[nH]n2)n1)[C@H]1CC[C@H](NC(=O)c2ccc(S(C)(=O)=O)cn2)CC1	< 20%

Here is the next item to consider.
Tested on MycN protein (Homo sapiens, UniProt P04198): Cn1nnc2ccc(C(=O)N[C@H]3CC[C@H](N(C)c4nccc(Nc5cc(C6CC6)[nH]n5)n4)CC3)cc21 . Observed inhibition at 2 µM: 80 to 100%

---

assayed.target: MycN protein (n-myc) (Homo sapiens)
Construct: either 2×10^6 of L-363 (human leukemia cell line) or SKNBE2 (neuroblastoma cell line) cells; endogenous in cells; host or cells: SKNBE2 / SK-N-BE(2) neuroblastoma cells
Sequence (P04198 whole entry): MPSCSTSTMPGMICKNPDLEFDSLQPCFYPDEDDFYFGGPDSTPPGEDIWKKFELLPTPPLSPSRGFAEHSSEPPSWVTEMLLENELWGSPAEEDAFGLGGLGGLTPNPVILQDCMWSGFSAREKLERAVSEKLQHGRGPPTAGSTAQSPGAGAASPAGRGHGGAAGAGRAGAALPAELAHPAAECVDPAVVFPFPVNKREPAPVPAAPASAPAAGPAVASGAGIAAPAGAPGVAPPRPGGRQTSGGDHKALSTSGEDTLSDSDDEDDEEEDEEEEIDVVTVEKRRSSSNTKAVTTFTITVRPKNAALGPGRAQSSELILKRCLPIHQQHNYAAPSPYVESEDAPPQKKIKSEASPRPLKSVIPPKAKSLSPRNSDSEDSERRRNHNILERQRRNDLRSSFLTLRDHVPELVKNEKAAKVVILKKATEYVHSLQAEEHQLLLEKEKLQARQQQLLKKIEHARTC
protocol.description: Degradation of MycN protein, 24 h treatment, JESS Western, SK-N-BE(2) cells (Example 161)
Format: cell-based
reported.conditions: SKNBE2 cells, 3 μM
The following compounds are shown together with reported inhibition at 3 µM values.

These solved cases illustrate the format of a correct answer.
chemical.string	assayed.target	recorded.result
CN(c1nccc(Nc2cc(C3CCCC3)[nH]n2)n1)C1CCNCC1	MycN protein (n-myc) (Homo sapiens)	80 to 100%
CN(c1nccc(Nc2cc(C3CC3)[nH]n2)n1)C1CCN(Cc2cccc(S(C)(=O)=O)c2)CC1	MycN protein (n-myc) (Homo sapiens)	80 to 100%
CN(c1nccc(Nc2cc(C3CC3)[nH]n2)n1)C1CC2(C1)CN(S(=O)(=O)c1cn3c(n1)CCCC3)C2	MycN protein (n-myc) (Homo sapiens)	< 20%
CN(c1nccc(Nc2cc(C3CC3)[nH]n2)n1)C1CCN(C2CC2)CC1	MycN protein (n-myc) (Homo sapiens)	80 to 100%
CN(c1nccc(Nc2cc(C3CC3)[nH]n2)n1)C1CCN(Cc2cc(F)cc(F)c2)CC1	MycN protein (n-myc) (Homo sapiens)	80 to 100%

The reported inhibition at 3 µM value, MycN protein (n-myc) (Homo sapiens), for CN(c1nccc(Nc2cc(C3CC3)[nH]n2)n1)C1CC2(C1)CN(C(=O)c1cccc(C(F)(F)F)c1)C2 reads 80 to 100%

For CN(c1nccc(Nc2cc(C3CC3)[nH]n2)n1)C1CC2(C1)CN(S(=O)(=O)c1cnn(C)c1)C2 on MycN protein (n-myc) (Homo sapiens), measured inhibition at 3 µM was 50 to 79%

Summary line: CN(c1nccc(Nc2cc(C3CC3)[nH]n2)n1)C1CC2(C1)CN(CCCc1nc3ccccc3o1)C2 , MycN protein (n-myc) (Homo sapiens), reported inhibition at 3 µM = 50 to 79%

# value of inhibition at 3 µM, MycN protein (n-myc) (Homo sapiens), item COCCOCCN1CC2(CC(N(C)c3nccc(Nc4cc(C5CC5)[nH]n4)n3)C2)C1 = 20 to 49%

Measured on MycN protein (n-myc) (Homo sapiens), CN(c1nccc(Nc2cc(C3CC3)[nH]n2)n1)C1CC2(C1)CN(CC1CCOCC1)C2 has a documented inhibition at 3 µM of 20 to 49%

---

Below, each of the molecules is paired with its reported inhibition at 0.5 µM value.
assayed.target: MycC protein (c-myc) (Homo sapiens, UniProt P01106)
Construct: either 2×10^6 of L-363 (human leukemia cell line) cells; endogenous in cells; host or cells: L-363 / L363 human leukemia cells
Sequence (P01106 whole entry): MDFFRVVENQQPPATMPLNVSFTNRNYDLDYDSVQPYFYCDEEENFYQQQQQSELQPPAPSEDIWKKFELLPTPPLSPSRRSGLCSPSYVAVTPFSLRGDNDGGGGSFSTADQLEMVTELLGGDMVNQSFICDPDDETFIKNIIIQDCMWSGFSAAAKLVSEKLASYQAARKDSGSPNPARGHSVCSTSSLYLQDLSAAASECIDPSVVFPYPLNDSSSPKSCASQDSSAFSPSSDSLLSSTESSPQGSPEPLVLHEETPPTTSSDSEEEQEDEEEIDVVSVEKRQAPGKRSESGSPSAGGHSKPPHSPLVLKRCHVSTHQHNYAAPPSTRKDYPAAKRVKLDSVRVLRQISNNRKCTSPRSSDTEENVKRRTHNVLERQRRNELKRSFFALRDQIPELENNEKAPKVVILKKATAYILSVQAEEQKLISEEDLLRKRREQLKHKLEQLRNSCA
protocol.description: Degradation of MycC protein, 24 h treatment, JESS Western, L363 cells (Example 161)
Type: cell-based
reported.conditions: L-363 cells, 0.5 μM

Below, 3 molecules whose answers are already recorded.
molecule	inhibition at 0.5 µM
CN(c1nccc(Nc2cc(C3CC3)[nH]n2)n1)C1CC2(C1)CN(S(=O)(=O)c1cnn(C)c1)C2 [Compound 35]	20 to 49%
CN(c1nccc(Nc2cc(C3CC3)[nH]n2)n1)C1CCN(C2CC2)CC1 [Compound 38]	50 to 79%
CN1CC2(CC(N(C)c3nccc(Nc4cc(C5CC5)[nH]n4)n3)C2)C1 [Compound 7]	< 20%

The molecule CN1CC2(CC(Nc3nccc(Nc4cc(C5CC5)[nH]n4)n3)C2)C1 [Compound 16] showed inhibition at 0.5 µM equal to 50 to 79%

Note to self: inhibition at 0.5 µM recorded for CN(c1nccc(Nc2cc(C3CC3)[nH]n2)n1)C1CCN(Cc2cc(F)cc(F)c2)CC1 [Compound 40] was < 20%

Form: molecule = CN1CCN(C(=O)CN2CC3(CC(N(C)c4nccc(Nc5cc(C6CC6)[nH]n5)n4)C3)C2)CC1 [Compound 30] ; inhibition at 0.5 µM = 20 to 49%

So, CN(c1nccc(Nc2cc(C3CC3)[nH]n2)n1)C1CC2(C1)CN(CC(=O)Nc1cccc(S(C)(=O)=O)c1)C2 [Compound 23] ? Its inhibition at 0.5 µM was < 20%

For CN(c1nccc(Nc2cc(C3CC3)[nH]n2)n1)C1CC2(C1)CN(Cc1cccc(OC(F)(F)F)c1)C2 [Compound 27] the molecule record lists inhibition at 0.5 µM as < 20%

Sure, the documented inhibition at 0.5 µM for CN(c1nccc(Nc2cc(C3CC3)[nH]n2)n1)C1CC2(C1)CN(CCCc1nc3ccccc3o1)C2 [Compound 29] is 50 to 79%

Note to self: inhibition at 0.5 µM recorded for CN(c1nccc(Nc2cc(C3CC3)[nH]n2)n1)C1CC2(C1)CN(Cc1ccccc1F)C2 [Compound 25] was 20 to 49%

---

assayed.target: MycN protein (Homo sapiens)
Construct: either 2×10^6 of L-363 (human leukemia cell line) or SKNBE2 (neuroblastoma cell line) cells; endogenous in cells; host or cells: SKNBE2 / SK-N-BE(2) neuroblastoma cells
protocol.description: Degradation of MycN protein, Western blot, SKNBE2 cells (Example 160)
Format: cell-based
reported.conditions: SKNBE2, 6 h
Procedure: In a T150 flask was plated either 2×10^6 of L-363 (human leukemia cell line) or SKNBE2 (neuroblastoma cell line) cells in a total of 30 mL containing Roswell Park Memorial Institute (RPMI) 1640 Medium (Thermo Fisher, Cat. #11875-085), 10% Fetal Bovine Serum (FBS, Thermo Fisher: Cat. #10437-028), 1% Penicillin/streptomycin (Thermo Fisher: Cat. #10378016), and 1% Amophotericin B (Thermo Fisher, Cat. #15290026). […]
quantity: inhibition at 2 µM

Check out these entries, answers already filled in.
molecule	inhibition at 2 µM
CN(c1nccc(Nc2cc(C3CC3)[nH]n2)n1)[C@H]1CC[C@H](NS(=O)(=O)Cc2cccc(C#N)c2)CC1 [Compound 158]	50 to 79%
CN(c1nccc(Oc2cc(C3CCCC3)[nH]n2)n1)C1CCC(NC(=O)Cc2cccc(C(F)(F)F)c2)CC1 (stereo not drawn) [Compound 131]	20 to 49%
CN(c1nccc(Nc2cc(C3CC3)[nH]n2)n1)[C@H]1CC[C@H](NS(=O)(=O)Cc2cccc(S(C)(=O)=O)c2)CC1 [Compound 157]	50 to 79%
Cn1nc(Nc2ccnc(N(C)[C@H]3CC[C@H](NC(=O)C4Cc5ccccc5C4)CC3)n2)cc1C1CC1 [Compound 111]	20 to 49%
CN(c1cc(C2CCCC2)[nH]n1)c1ccnc(N(C)[C@H]2CC[C@H](NC(=O)c3cccc(S(C)(=O)=O)c3)CC2)n1 [Compound 148]	< 20%
Cn1nnc(C(=O)N[C@H]2CC[C@H](N(C)c3nccc(Nc4cc(C5CC5)[nH]n4)n3)CC2)n1 [Compound 122]	50 to 79%

# inhibition at 2 µM (molecule: Cn1nnc2cc(C(=O)N[C@H]3CC[C@H](N(C)c4nccc(Nc5cc(C6CC6)[nH]n5)n4)CC3)ccc21 [Compound 139] ) is 80 to 100%

inhibition at 2 µM measured on COc1ccc(C#N)cc1CC(=O)N[C@H]1CC[C@H](N(C)c2nccc(Nc3cc(C4CC4)[nH]n3)n2)CC1 [Compound 126] = < 20%

Lab note: CN(c1nccc(Nc2cc(C3CC3)[nH]n2)n1)[C@H]1CC[C@H](NC(=O)c2ccc(C#N)cn2)CC1 [Compound 137] gave inhibition at 2 µM of < 20%

# molecule CN(c1cc(C2CCCC2)[nH]n1)c1ccnc(N(C)[C@H]2CC[C@H](NC(=O)C3Cc4ccccc4C3)CC2)n1 [Compound 143] ; its inhibition at 2 µM = < 20%

Memo: CN1CC2(CC(N(C)c3nccc(Nc4cc(C5CC5)[nH]n4)n3)C2)C1 [Compound 7] , reported inhibition at 2 µM: < 20%

For this molecule ( CN(c1nccc(Nc2cc(C3CC3)[nH]n2)n1)[C@H]1CC[C@H](NC(=O)Cc2cccc(C#N)n2)CC1 [Compound 125] ), measured inhibition at 2 µM is 80 to 100%

These entries and their values trace back to patent US20230322722A1.
